Target: T1, ALK4-Fc:ActRIIB-Fc heterodimer (human, UniProt P36896 24-126; Q13705 20-134)
T1 construct: also called ALK4-Fc:ActRIIB-Fc heterodimeric complex; ALK4:ActRIIB heterodimer; not shown: linker and engineered Fc
T1 sequence 1: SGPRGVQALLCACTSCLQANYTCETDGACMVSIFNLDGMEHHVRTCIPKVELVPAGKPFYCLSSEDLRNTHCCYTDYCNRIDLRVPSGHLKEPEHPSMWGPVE
T1 sequence 2: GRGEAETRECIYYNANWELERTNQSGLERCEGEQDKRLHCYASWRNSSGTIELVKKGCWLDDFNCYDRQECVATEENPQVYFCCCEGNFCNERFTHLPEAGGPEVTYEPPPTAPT
Assay: SPR (Biacore), Fc protein captured by anti-Fc antibody, ligand injected
Measured metric: koff (s⁻¹)

GDF11 (ligand, UniProt O95390 299-407, looked up, also called BMP11) NLGLDCDEHSSESRCCRYPLTVDFEAFGWDWIIAPKRYKANYCSGQCEYMFMQKYPHTHLVQQANPRGSAGPCCTPTKMSPINMLYFNDKQQIIYGKIPGMVVDRCGCS | 0.00011
activin B (ligand, UniProt P09529 293-407, looked up) GLECDGRTNLCCRQQFFIDFRLIGWNDWIIAPTGYYGNYCEGSCPAYLAGVPGSASSFHTAVVNQYRMRGLNPGTVNSCCIPTKLSTMSMLYFDDEYNIVKRDVPNMIVEECGCA | 4e-05

A = BMP10 (ligand, UniProt O95393 317-424, looked up) NAKGNYCKRTPLYIDFKEIGWDSWIIAPPGYEAYECRGVCNYPLAEHLTPTKHAIIQALVHLKNSQKASKACCVPTKLEPISILYLDKGVVTYKFKYEGMAVSECGCR
B = GDF3 (ligand, UniProt Q9NR23 251-364, looked up) AAIPVPKLSCKNLCHRHQLFINFRDLGWHKWIIAPKGFMANYCHGECPFSLTISLNSSNYAFMQALMHAVDPEIPQAVCIPTKLSPISMLYQDNNDNVILRHYEDMVVDECGCG
*Q* Compare A and B and name the one whose reported koff is smaller. // respond with label for picked entry
*A* A
(A: 0.0041 s⁻¹, B: 0.017 s⁻¹)

P = BMP6 (ligand, UniProt P22004 382-513, looked up) QQSRNRSTQSQDVARVSSASDYNSSELKTACRKHELYVSFQDLGWQDWIIAPKGYAANYCDGECSFPLNAHMNATNHAIVQTLVHLMNPEYVPKPCCAPTKLNAISVLYFDDNSNVILKKYRNMVVRACGCH
Q = activin A (ligand, UniProt P08476 311-426, looked up, also called ActA) GLECDGKVNICCKKQFFVSFKDIGWNDWIIAPSGYHANYCEGECPSHIAGTSGSSLSFHSTVINHYRMRGHSPFANLKSCCVPTKLRPMSMLYYDDGQNIIKKDIQNMIVEECGCS
*Q* Compare P and Q and name the one whose reported koff is smaller. // respond with label for picked entry
*A* Q
(Q: 0.00015 s⁻¹, P: 0.0055 s⁻¹)
